# credit: the supplement of paper PMC8633005

drug sensitivity score by entry:
Test system: FM-MEL-6
measurement-notes: drug sensitivity score (DSS) (DSS (unitless, 0-50 scale)); higher = more sensitive (stronger viability inhibition); extreme values may be limits of the assay
conditions-used: 72 h; culture: 2D
recorded-metric: drug sensitivity score

compound: CC[C@@](C)(Nc1ccnc(-c2c[nH]c3ncccc23)n1)C(=O)NCC(F)(F)F [Decernotinib]
recorded-metric: drug sensitivity score
obs-value: 0
--
compound: CNC(=O)c1ccc2cc([C@@]3(O)CCn4cncc43)ccc2c1 [Orteronel]
recorded-metric: drug sensitivity score
obs-value: 0
--
compound: O=C(Nc1cccc(Nc2ncc(Br)c(NCCc3cnc[nH]3)n2)c1)N1CCCC1 [BX-912]
recorded-metric: drug sensitivity score
obs-value: 0.5
--
compound: CCC(C)n1ncn(-c2ccc(N3CCN(c4ccc(OCC5COC(Cn6cncn6)(c6ccc(Cl)cc6Cl)O5)cc4)CC3)cc2)c1=O (centres undefined) [Itraconazole]
recorded-metric: drug sensitivity score
obs-value: 0
